Every entry's value here was drawn from paper PMC7307906.

# subject-of-test: human MC4R (Homo sapiens)
# test-details: cAMP assay (LANCE) in T-Rex-293 cells expressing MC4R
# experimental-conditions: cAMP assay; mean (± SEM) of at least three independent experiments; read-out: EC50 hMC4R cAMP
measured-quantity: EC50

Q: I have this molecule here, CN1C(=O)[C@@H]2[C@H](C1=O)[C@H]1N[C@@H]2c2ccc(cc2)C(=O)NCCCC[C@@H](C(=O)N[C@@H](Cc2ccc(O)cc2)C(N)=O)NC(=O)[C@H](CC(N)=O)NC(=O)[C@H](Cc2ccccc2)NC(=O)[C@H](Cc2ccccc2)NC(=O)[C@H](CCCNC(=N)N)NC(=O)[C@H](Cc2ccccc2)N(C)C1=O [J1-major, [ I-FRFFNK ]Y] , and I need its recorded EC50.
Ans: > 100 µM

Q: Entry C[C@@H]1NC(=O)[C@H](CC(N)=O)NC(=O)[C@H](Cc2ccccc2)NC(=O)[C@H](Cc2ccccc2)NC(=O)[C@H](CCCNC(=N)N)NC(=O)[C@H](Cc2ccccc2)N(C)C(=O)[C@H]2N[C@@H](c3ccc(cc3)C(=O)NCCCC[C@@H](C(=O)NCC(N)=O)NC(=O)[C@H](Cc3ccccc3)NC1=O)[C@H]1C(=O)N(C)C(=O)[C@H]12 [B2-minor, [ I-FRFFNAFK ]G] : reported EC50 = ?
Ans: > 100 µM

Q: So what's the measured EC50 for this one? COc1ccc(N2C(=O)[C@@H]3[C@H](C2=O)[C@H]2N[C@@H]3c3ccc(cc3)C(=O)NCCCC[C@@H](C(=O)NCC(N)=O)NC(=O)[C@H](CC(N)=O)NC(=O)[C@@H](Cc3ccccc3)NC(=O)[C@@H](Cc3ccccc3)NC(=O)[C@H](CCCNC(=N)N)NC(=O)[C@H](Cc3ccccc3)N(C)C2=O)cc1 [K4-major, [III-FRffNK ]G]
Ans: 3.7 µM

====

Where a SMILES comes first, the peptide text is derived from it.
measured-quantity: pIC50
# log scale: pIC50 equals minus log10 of the concentration in mol/L

Q: Entry C[C@@H]1NC(=O)[C@H](CC(N)=O)NC(=O)[C@@H](Cc2ccccc2)NC(=O)[C@@H](Cc2ccccc2)NC(=O)[C@H](CCCNC(=N)N)NC(=O)[C@H](Cc2ccccc2)N(C)C(=O)[C@@H]2N[C@H](c3ccc(cc3)C(=O)NCCCC[C@@H](C(=O)N[C@@H](Cc3ccc(O)cc3)C(N)=O)NC(=O)[C@H](Cc3ccccc3)NC1=O)[C@@H]1C(=O)N(C)C(=O)[C@@H]12 [C1-major, [I-FRffNAFK ]Y] , system human MC4R (Homo sapiens, UniProt P32245): what pIC50 was measured?
Ans: 4.59

Q: Which measured pIC50 belongs to C[C@@H]1NC(=O)[C@H](CC(N)=O)NC(=O)[C@@H](Cc2ccccc2)NC(=O)[C@@H](Cc2ccccc2)NC(=O)[C@H](CCCNC(=N)N)NC(=O)[C@H](Cc2ccccc2)N(C)C(=O)[C@@H]2N[C@H](c3ccc(cc3)C(=O)NCCCC[C@@H](C(=O)NCC(N)=O)NC(=O)[C@H](Cc3ccccc3)NC1=O)[C@@H]1C(=O)N(C)C(=O)[C@@H]12 [C4-major, [I-FRffNAFK ]G] , tested on human MC4R (Homo sapiens, UniProt P32245)?
Ans: 4.14

Q: Missing value: pIC50, human MC4R (Homo sapiens, UniProt P32245), entry C[C@@H]1NC(=O)[C@H](CC(N)=O)NC(=O)[C@H](Cc2ccccc2)NC(=O)[C@H](Cc2ccccc2)NC(=O)[C@H](CCCNC(=N)N)NC(=O)[C@H](Cc2ccccc2)N(C)C(=O)[C@H]2N[C@@H](c3ccc(cc3)C(=O)NCCCC[C@@H](C(=O)N[C@@H](Cc3ccc(O)cc3)C(N)=O)NC1=O)[C@H]1C(=O)N(c3ccccc3)C(=O)[C@H]12 [F2-minor, [ II-FRFFNAK ]Y] . Fill in?
Ans: 4.04

Q: Please state recorded pIC50 (tested on human MC4R (Homo sapiens, UniProt P32245)) of C[C@@H]1NC(=O)[C@H](CC(N)=O)NC(=O)[C@H](Cc2ccccc2)NC(=O)[C@H](Cc2ccccc2)NC(=O)[C@H](CCCNC(=N)N)NC(=O)[C@@H](NC(=O)[C@@H](N)Cc2ccc(O)cc2)CSSC[C@@H](C(=O)N[C@@H](Cc2ccc(O)cc2)C(N)=O)NC(=O)[C@H](Cc2ccccc2)NC1=O [compound 28, reference compound] (HELM PEPTIDE1{Y.C.R.F.F.N.A.F.C.Y.[am]}$PEPTIDE1,PEPTIDE1,2:R3-9:R3$$$V2.0)
Sequence (P32245 whole entry): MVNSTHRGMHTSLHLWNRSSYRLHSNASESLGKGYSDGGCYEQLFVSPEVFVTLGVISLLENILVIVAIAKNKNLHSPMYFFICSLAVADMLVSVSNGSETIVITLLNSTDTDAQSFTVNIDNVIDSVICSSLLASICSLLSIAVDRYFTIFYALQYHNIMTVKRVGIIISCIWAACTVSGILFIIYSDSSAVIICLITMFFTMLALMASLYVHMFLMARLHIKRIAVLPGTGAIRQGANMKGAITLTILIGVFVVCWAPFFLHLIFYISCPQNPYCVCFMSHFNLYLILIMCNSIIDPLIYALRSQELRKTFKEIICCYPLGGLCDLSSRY
Ans: 6.74

Q: Which measured pIC50 belongs to C[C@@H]1NC(=O)[C@H](CC(N)=O)NC(=O)[C@@H](Cc2ccccc2)NC(=O)[C@@H](Cc2ccccc2)NC(=O)[C@H](CCCNC(=N)N)NC(=O)[C@@H](NC(=O)[C@@H](N)Cc2ccc(O)cc2)CSSC[C@@H](C(=O)N[C@@H](Cc2ccc(O)cc2)C(N)=O)NC(=O)[C@H](Cc2ccccc2)NC1=O [compound 29, Y[CRffNAFC]Y, reference compound] (HELM PEPTIDE1{Y.C.R.[dF].[dF].N.A.F.C.Y.[am]}$PEPTIDE1,PEPTIDE1,2:R3-9:R3$$$V2.0) , tested on human MC4R (Homo sapiens, UniProt P32245)?
Ans: 5.15
